- assay notes: Pharmacokinetics of Compound I in dog after intravenous and oral administration (plasma LC/MS/MS, noncompartmental analysis)
- Type: in vivo, male beagle dogs
- condition details: male, beagle, plasma, intravenous, 1 mg/kg, mean ± SD
readout label: AUC (ng·h/mL)

[[record]]
smiles_code = "O=C(NCc1cn(-c2ccc(-n3ccccc3=O)cc2)cn1)c1ccc(Cl)s1"
measurement = 1620


====

- assay notes: Pharmacokinetics of Compound I in monkey after intravenous and oral administration (plasma LC/MS/MS, noncompartmental analysis)
- Format: in vivo, male rhesus monkeys
- condition details: male, rhesus, rhesus monkey, plasma, intravenous, 1 mg/kg, mean ± SD
readout label: AUC(0-inf) (ng·h/mL)

[[record]]
molecule = "O=C(NCc1cn(-c2ccc(-n3ccccc3=O)cc2)cn1)c1ccc(Cl)s1 [Compound I]"
measurement = 12600


====

- assay notes: Pharmacokinetics of Compound I in monkey after intravenous and oral administration (plasma LC/MS/MS, noncompartmental analysis)
- Format: in vivo, male rhesus monkeys
- condition details: male, rhesus, rhesus monkey, plasma, oral, 5 mg/kg, mean ± SD
readout label: Cmax (ng/mL)

[[record]]
smiles_code = "O=C(NCc1cn(-c2ccc(-n3ccccc3=O)cc2)cn1)c1ccc(Cl)s1"
unit_name = "ng/mL"
measurement = 6040


====

- assay notes: Pharmacokinetics of Compound I in rat after intravenous and oral administration (plasma and urine LC/MS/MS, noncompartmental analysis)
- Format: in vivo, male Sprague-Dawley rats
- condition details: male, Sprague-Dawley, plasma, oral, 10 mg/kg, mean ± SD
readout label: Cmax (ng/mL)

[[record]]
smiles_code = "O=C(NCc1cn(-c2ccc(-n3ccccc3=O)cc2)cn1)c1ccc(Cl)s1"
readout_label = "Cmax"
measurement = 28900


====

- assay notes: Pharmacokinetics of Compound I in dog after intravenous and oral administration (plasma LC/MS/MS, noncompartmental analysis)
- Type: in vivo, male beagle dogs
- condition details: male, beagle, plasma, intravenous, 1 mg/kg, mean ± SD
readout label: AUC(0-inf) (ng·h/mL)

[[record]]
compound = "O=C(NCc1cn(-c2ccc(-n3ccccc3=O)cc2)cn1)c1ccc(Cl)s1 [Compound I]"
readout_label = "AUC(0-inf)"
unit_name = "ng·h/mL"
measurement = 1620


====

- assay notes: Pharmacokinetics of Compound I in rat after intravenous and oral administration (plasma and urine LC/MS/MS, noncompartmental analysis)
- Format: in vivo, male Sprague-Dawley rats
- condition details: male, Sprague-Dawley, plasma, intravenous, 1 mg/kg, mean ± SD, read-out: CL (systemic clearance)
- Method: The following experiments were conducted using samples of Compound I prepared by a method disclosed in U.S. Pat. No. 7,763,608, which is incorporated by reference in its entirety. Compound I was used in the rat investigation. […] All animals were dosed based on individual weights with a PO gavage volume of 5.0 mL/kg and an IV bolus dose volume of 1.0 mL/kg. […] At collection times, urine volume and water consumption was recorded. […]
readout label: clearance

[[record]]
smiles_code = "O=C(NCc1cn(-c2ccc(-n3ccccc3=O)cc2)cn1)c1ccc(Cl)s1"
readout_label = "clearance"
measurement = "3.19 mL/min/kg"


====

- assay notes: Pharmacokinetics of Compound I in dog after intravenous and oral administration (plasma LC/MS/MS, noncompartmental analysis)
- Assay type: in vivo, male beagle dogs
- condition details: male, beagle, plasma, oral, 5 mg/kg, mean ± SD
readout label: AUC(0-inf)

[[record]]
compound = "O=C(NCc1cn(-c2ccc(-n3ccccc3=O)cc2)cn1)c1ccc(Cl)s1 [Compound I]"
measurement = "5480 ng·h/mL"

